Species: Homo sapiens
Assay: Inhibition of tubulin (unknown origin) polymerization
Calls of active or inactive are those of the source. No cut-off for these calls is given here.
Please answer using one outcome listed in active, inactive

Ask: Hi, sorry to bother you, what did the test record for CC[C@]1(O)C[C@@H]2CN(CCc3c([nH]c4ccccc34)[C@@](C(=O)OC)(c3cc4c(cc3OC)N(C)[C@H]3[C@@](O)(C(=O)OC)[C@H](OC(C)=O)[C@]5(CC)C=CCN6CC[C@]43[C@@H]65)C2)C1 ?
Reply: active

Ask: Hello, I am checking results. What call was entered for CC(=O)O[C@H]1C(=O)[C@@]2(C)[C@H]([C@H](OC(=O)c3ccccc3)[C@]3(O)C[C@H](OC(=O)[C@H](O)[C@@H](NC(=O)c4ccccc4)c4ccccc4)C(C)=C1C3(C)C)[C@]1(OC(C)=O)CO[C@@H]1C[C@@H]2O ?
Reply: active

Ask: Would you mind telling me which call this test gave CC(=O)Nc1ccc(-c2cnc3[nH]cc(-c4ccc(O)cc4)c3c2)cc1 ?
Reply: inactive

Ask: Recorded test call requested for Nc1ccc(-c2cnc3[nH]cc(-c4ccc(O)cc4)c3c2)cc1
Reply: inactive

Ask: Please share the test call associated with Nc1ccc(-c2c[nH]c3ncc(-c4ccc(O)cc4)cc23)cc1 .
Reply: inactive

* * *

Biological target: Dual specificity tyrosine-phosphorylation-regulated kinase 1A (Homo sapiens)
Assay: Inhibition of DYRK1A (unknown origin) using woodtide as substrate after 10 mins in presence of [gamma-33P]ATP by microbeta scintillation counting
pIC50: −log10 of the molar value.
For each of the molecules below, state its pIC50.

Ask: Identify measured pIC50 corresponding to Nc1ccc(-c2c[nH]c3ncc(-c4ccc(O)cc4)cc23)cc1
Reply: < 6.00

Ask: # return recorded pIC50 for input O=C(Nc1ccc(O)cc1)c1c[nH]c2ncc(-c3ccc(O)cc3)cc12
Reply: < 6.00

Ask: Indicate the recorded pIC50 value for this molecule: Oc1ccc(-c2ccc3[nH]cc(-c4ccc(O)cc4)c3c2)cc1
Reply: < 6.00

Ask: Consider the molecule Oc1ccc(-c2ccc3[nH]nc(-c4ccc(O)cc4)c3c2)cc1 and give its recorded pIC50.
Reply: < 6.00

Ask: Name the recorded pIC50 of the molecule listed here: O=C(Nc1cccc(O)c1)c1c[nH]c2ncc(-c3ccc(O)cc3)cc12
Reply: < 6.00

All figures here come from ChEMBL document CHEMBL4007420.
